- Tested on: COLO 205
- protocol-details: NCI tumour cell line growth inhibition, 48 h
Activity calls are given as the source filed them. No stated cut-off is given here; in the data, active = GI50 up to about 1.1 µM and inactive = higher.
assay-readout: GI50

> print(dat)
                                   compound            obs.value
1  C[C@@]1(O)CC[C@]2(C)C3CCCC3[C@H]12 (some centres not stated)  > 100 µM (inactive)
2  Cc1nc(SCC(=O)Nc2ccccc2)c2sc(=S)n(-c3ccccc3)c2n1   > 10 µM (inactive)
3  O=C(CCc1nnc(S)[nH]1)NC12CC3CC(CC(C3)C1)C2  > 100 µM (inactive)
4  Clc1ccccc1-c1nc(-c2ccncc2)no1 [PIFEXOLE]   40.8 µM (inactive)
5  O=C1CCCC1CN1CCCC1 (configuration not stated)   3.78 µM (inactive)
6  COC(=O)C1=C(C)NC(C)=C(C(=O)OC)C1c1ccc(NO)cc1   12.5 µM (inactive)
7    C[C@@]12C[C@@H](c3ccccc3O1)N1CCCSC1=N2  > 100 µM (inactive)

====

- Tested on: BT-549
- protocol-details: NCI tumour cell line growth inhibition, 48 h
Calls of active or inactive are those of the source. Rule as the data show it: active = GI50 up to about 1.1 µM and inactive = higher.
assay-readout: GI50

> print(dat)
                                   compound            obs.value
1  Cc1ccc(NC(=O)/C(Cc2cc(=O)oc3cc(O)ccc23)=N\NC(C)(C)C)cc1C  > 100 µM (inactive)
2  O=c1[nH]c(=S)[nH]c2c(C3OC(CO)C(O)C3O)nsc12 (stereo not drawn)  > 100 µM (inactive)
3        C=CCSC1=N/C(=C\c2cccs2)C(=O)N1CC=C   44.4 µM (inactive)
4       Cn1c2ccccc2n2c(N=O)c(-c3ccccc3)nc12   27.6 µM (inactive)
5          CCOc1ccc(/N=C/c2ccnc3ccccc23)cc1   34.4 µM (inactive)
6  O=C(Cc1ccc([N+](=O)[O-])cc1)OCC#CCOC(=O)Cc1ccc([N+](=O)[O-])cc1   > 10 µM (inactive)
7  CSc1ccc(C=C2N=C(c3ccccc3)N(c3cc(C(=O)c4ccccc4)ccc3N3C(=O)/C(=C/c4ccc(SC)cc4)N=C3c3ccccc3)C2=O)cc1   45.6 µM (inactive)
8  CCN1C(=O)C(=C/C=C/c2ccc(OC)cc2)C(=O)N(CC)C1=S   26.7 µM (inactive)

====

Documented GI50 across a set of molecules
- Test system: Malme-3M
- protocol-details: NCI tumour cell line growth inhibition, 48 h
Calls of active or inactive are those of the source. No stated cut-off is given here; in the data, active = GI50 up to about 1.1 µM and inactive = higher.

molecule	GI50
COC(=O)C1=C(C)NC(C)=C(C(=O)OC)C1c1ccc(NO)cc1	13 µM (inactive)
O=c1oc2ccccc2cc1-c1nc2ccc([N+](=O)[O-])cc2o1	> 100 µM (inactive)
CCSC1=N/C(=C\c2ccco2)C(=O)N1	> 100 µM (inactive)
COC(C)(C)/C=C/c1[nH]c2ccccc2c1CC(=O)NCCc1cn(C(c2ccccc2)(c2ccccc2)c2ccccc2)cn1	3.76 µM (inactive)
N=C(N)NS(=O)(=O)c1ccc(NC(=O)c2ccc3nc4ccccc4c(O)c3c2)cc1	> 100 µM (inactive)
COc1ccc(N2C(=O)C(=O)C3(CCCCC3)C2=O)c2ccccc12	> 10 µM (inactive)
CC1(C)O[C@H]2OC3CCC(=O)CC3(O)[C@H]2O1 (some centres not stated)	> 51.6 µM (inactive)
COC(=O)C(Cc1ccccc1)NC(=O)C(CCC(=O)OCc1ccccc1)NC(=O)OC(C)(C)C (configuration not stated)	> 100 µM (inactive)
CCOC(=O)C(=O)Nc1c(C)cccc1C	> 100 µM (inactive)
NNC(=O)Nc1cccnc1	> 100 µM (inactive)
Nc1ccc2c3[nH]c4cc(N)ccc4cc-3nc2c1	2.66 µM (inactive)
COc1ccccc1/C=C1\CCC(CN2CCOCC2)C1=O (configuration not stated)	10.2 µM (inactive)
CC(=O)NC(CSC1=C2NC(=O)\C=C/C=C\C=C/C(C)C(O)CC(=O)/C(C)=C\CC(O)/C=C\C(C)C(O)C(C)C=C(C)C(=O)c3c(O)c(C)cc(c3C1=O)C2=O)C(=O)O (configuration not stated)	52.1 µM (inactive)
C[N+](C)(C)CC(=O)N/N=C/c1ccncc1	> 100 µM (inactive)
Ic1ccc2c(c1)N(c1ccccc1)c1cc([N-]c3ccc4nc5ccc(I)cc5[n+](-c5ccccc5)c4c3)ccc1N2	38 µM (inactive)
Cc1nn2c(nc1=O)sc1ccc3ccccc3c12	> 100 µM (inactive)
NC1=NN(c2ccccc2)C(=O)C1/C(=N\NC(=O)c1cc2ccccc2cc1O)C(=O)Nc1ccc(Cl)cc1 (configuration not stated)	30.8 µM (inactive)
